Taken from patent US11285147B2.

- target-under-test: UniProtKB P19020
- Format: binding
- recorded-conditions: read-out: Ki (nM) D3, [3H]spiroperidol; cloned D3 in HEK-293 cells; mean ± SEM of 3-6 experiments
readout-kind: Ki (nM)
Answers are plain numbers, in nM.

In: Dear colleague, please send me the reported Ki for CCCN(CCc1cc(O)c(CCN(CCC)[C@H]2CCc3nc(N)sc3C2)cc1O)[C@H]1CCc2nc(N)sc2C1 when you can.
Out: 6.87

---

- target-under-test: UniProtKB P61169
- Sequence (P61169 whole entry): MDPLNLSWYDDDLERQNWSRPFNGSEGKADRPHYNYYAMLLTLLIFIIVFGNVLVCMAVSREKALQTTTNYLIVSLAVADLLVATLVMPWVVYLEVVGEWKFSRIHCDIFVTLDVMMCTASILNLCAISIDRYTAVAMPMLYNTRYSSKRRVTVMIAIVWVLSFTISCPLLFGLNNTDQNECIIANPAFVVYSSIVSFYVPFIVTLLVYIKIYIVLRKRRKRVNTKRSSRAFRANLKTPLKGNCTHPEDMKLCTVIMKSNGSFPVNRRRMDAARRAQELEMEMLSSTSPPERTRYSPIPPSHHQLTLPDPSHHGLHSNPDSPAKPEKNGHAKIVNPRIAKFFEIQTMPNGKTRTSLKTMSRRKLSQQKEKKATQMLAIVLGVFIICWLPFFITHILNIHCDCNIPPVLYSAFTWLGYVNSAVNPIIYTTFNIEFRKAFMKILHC
readout-kind: pKi
Answers are plain numbers, as −log10 of the molar value.

In: Dear colleague, please send me the reported pKi for CCCN(CCc1cc(O)c(CCN(CCC)[C@H]2CCc3nc(N)sc3C2)cc1O)[C@H]1CCc2nc(N)sc2C1 [12 (D-673)] when you can.
Out: 7.26
